# Target or system: recombinant human SGK-1 enzyme (Homo sapiens)
# Sequence (O00141 whole entry, looked up): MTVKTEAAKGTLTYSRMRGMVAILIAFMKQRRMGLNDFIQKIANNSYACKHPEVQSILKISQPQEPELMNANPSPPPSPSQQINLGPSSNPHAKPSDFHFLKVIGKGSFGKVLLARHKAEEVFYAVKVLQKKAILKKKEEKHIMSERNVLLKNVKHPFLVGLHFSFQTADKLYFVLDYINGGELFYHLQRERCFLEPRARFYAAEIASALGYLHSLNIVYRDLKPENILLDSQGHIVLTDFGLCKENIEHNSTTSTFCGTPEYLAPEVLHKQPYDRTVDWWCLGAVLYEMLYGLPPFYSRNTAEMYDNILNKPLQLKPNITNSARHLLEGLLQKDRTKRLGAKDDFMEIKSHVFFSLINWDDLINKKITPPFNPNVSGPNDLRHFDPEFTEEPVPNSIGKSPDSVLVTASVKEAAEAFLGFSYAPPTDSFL
# Assay comment: Enzymatic activity assay: SGK-1 substrate peptide phosphorylation (Caliper lab-chip mobility shift)
# Assay type: biochemical
# Experimental context: peptide substrate 1 μM, ATP 10 μM, 60 min at 37° C., read-out: IC50 values for inhibition of SGK-1 enzymatic activity
Result type: IC50 (nM)

> print(dat)
                                    compound  result.type  readout.qualifier  reported.result
 1  Cc1ccc(C#N)c(S(=O)(=O)Nc2ccc(-c3nc(OCCCO)c4c(C)n[nH]c4n3)cc2)c1 [Example 380]         IC50                  =               12
 2  CC(C)COc1nc(-c2ccc(NS(=O)(=O)c3ccccc3F)cc2)nc2[nH]nc(N)c12 [Example 331]         IC50                  =              290
 3  COc1ccc(C#N)c(S(=O)(=O)Nc2ccc(-c3ncc4c(N)n[nH]c4n3)cc2)c1 [Example 522]         IC50                  =              2.4
 4  COc1ccc(F)c(S(=O)(=O)Nc2ccc(-c3nc(OC4CCCNC4)c4c(C)n[nH]c4n3)cc2)c1 (stereo not drawn) [Example 294]         IC50                  =              3.5
 5  COc1ccc(Cl)c(S(=O)(=O)Nc2ccc(-c3nc(OCC4CNCCO4)c4c(C)n[nH]c4n3)cc2)c1 (stereo not drawn) [Example 290]         IC50                  =              3.3
 6  COc1ccc(F)c(S(=O)(=O)Nc2ccc(-c3cc4[nH]nc(C)c4c(Oc4ccc(OC)nc4)n3)cc2)c1 [Example 653]         IC50                  =               30
 7  COc1nc(-c2ccc(NS(=O)(=O)c3cc(Cl)ccc3Cl)cc2)nc2[nH]ncc12 [Example 139]         IC50                  =               82
 8  O=S(=O)(Nc1ccc(-c2nc(OC3CCC(O)C3)c3cn[nH]c3n2)cc1)c1cc(Cl)ccc1F (stereo not drawn) [Example 75]         IC50                  =              4.8
 9  COc1ccc(Cl)c(S(=O)(=O)Nc2ccc(-c3nc(OC4CCN(CCF)CC4)c4c(C)n[nH]c4n3)cc2)c1 [Example 341]         IC50                  =              4.9
10  Cc1n[nH]c2nc(-c3ccc(NS(=O)(=O)c4cc(Cl)ccc4Cl)cc3)nc(OC3CCN(CCF)CC3)c12 [Example 342]         IC50                  =                6
11  COc1ccc(Cl)c(S(=O)(=O)Nc2ccc(-c3cc4[nH]nc(C)c4c(OCCC(=O)N(C)C)n3)cc2)c1 [Example 689]         IC50                  =               13
12  Cc1nc(-c2ccc(NS(=O)(=O)c3cc(F)c(F)c(F)c3)cc2)nc2[nH]nc(N)c12 [Example 165]         IC50                  =              110
13  O=S(=O)(Nc1ccc(-c2nc(OC3CCC(O)CC3)c3cn[nH]c3n2)cc1)c1cc(Cl)ccc1Cl (stereo not drawn) [Example 61]         IC50                  <              1.2
14  Cc1n[nH]c2nc(-c3ccc(NS(=O)(=O)c4cc(F)ccc4F)cc3)nc(OC3CCNCC3F)c12 (stereo not drawn) [Example 296]         IC50                  =              2.7
15  COc1ccc(Oc2nc(-c3ccc(NS(=O)(=O)c4cc(C)ccc4F)cc3)cc3[nH]nc(C)c23)cn1 [Example 654]         IC50                  =               37

====

# Target or system: recombinant human SGK-1 enzyme (Homo sapiens)
# Assay comment: Enzymatic activity assay: SGK-1 substrate peptide phosphorylation (Caliper lab-chip mobility shift)
# Format: biochemical
# Experimental context: peptide substrate 1 μM, ATP 10 μM, 60 min at 37° C., read-out: IC50 values for inhibition of SGK-1 enzymatic activity
Each entry below carries its recorded IC50.
Result type: IC50

> print(dat)
                                    compound  reported.result
 1  O=S(=O)(Nc1ccc(-c2nc(SCCCO)c3cn[nH]c3n2)cc1)c1cc(Cl)ccc1Cl         < 1.5 nM
 2  Cc1n[nH]c2cc(-c3ccc(NS(=O)(=O)c4cc(F)ccc4F)cc3)nc(OCC3CN(C(C)C)C3)c12             2 nM
 3  Cc1nc(-c2ccc(NS(=O)(=O)c3cccc(F)c3C#N)cc2)nc2[nH]nc(N)c12            12 nM
 4  Cc1ccc(F)c(S(=O)(=O)Nc2ccc(-c3nc(OCC(F)(F)CN)c4c(C)n[nH]c4n3)cc2)c1           6.5 nM
 5  COc1ccc(Cl)c(S(=O)(=O)Nc2ccc(-c3cc4[nH]nc(C)c4c(Oc4ccnc(OC)c4)n3)cc2)c1            25 nM
 6  Cc1n[nH]c2nc(-c3ccc(NS(=O)(=O)c4cc(Cl)ccc4C#N)cc3)nc(OCC(C)C)c12           110 nM
 7  Cc1ccc(F)c(S(=O)(=O)Nc2ccc(-c3nc(OCCCN)c4cn[nH]c4n3)cc2)c1         < 1.5 nM
 8  Cc1ccc(F)c(S(=O)(=O)Nc2ccc(-c3nc(C)c4c(N)n[nH]c4n3)cc2)c1           1.5 nM
 9  COc1ccc(Cl)c(S(=O)(=O)Nc2ccc(-c3nc(OC4CCC(O)CC4)c4c(C)n[nH]c4n3)cc2)c1 (stereo not drawn)           1.7 nM
10  N#Cc1c(Cl)cccc1S(=O)(=O)Nc1ccc(-c2ncc3c(N)n[nH]c3n2)cc1           6.2 nM
11  CCOc1nc(-c2ccc(NS(=O)(=O)c3cc(Cl)c(F)cc3F)cc2)nc2[nH]nc(N)c12          0.57 nM
12  O=S(=O)(Nc1ccc(-c2nc(OC3CCNCC3(F)F)c3cn[nH]c3n2)cc1)c1cc(Cl)ccc1Cl (stereo not drawn)           6.5 nM
13  CCCOc1nc(-c2ccc(NS(=O)(=O)c3cc(Cl)ccc3Cl)cc2)cc2[nH]nc(N)c12            13 nM
14  Cc1n[nH]c2nc(-c3ccc(NS(=O)(=O)c4ccccc4F)cc3)nc(OC3CCCNC3)c12 (stereo not drawn)            12 nM
15  Cc1ccc(C#N)c(S(=O)(=O)Nc2ccc(-c3nc(C)c4c(N)n[nH]c4n3)cc2)c1         < 1.5 nM

====

# Tested on: SGK-1 dependent phosphorylation of GSK3beta in U2OS cells
# Assay comment: SGK-1 dependent phosphorylation of GSK3beta in U2OS cells overexpressing recombinant SGK-1 and GSK3beta
# Format: cell-based, human
# Experimental context: U2OS cells, 6 h incubation, ratio of phosphorylated GSK3beta to total GSK3beta; read-out: IC50 values for inhibition of SGK-1 dependent phosphorylation of GSK3beta in U2OS cells
pIC50: −log10 of the molar value.
Would you please tag the item YES when its pIC50 is 6 or above, and NO when it is below?

> print(dat)
                                    compound                          target.or.system  assigned.category
 1  COc1ccc(Cl)c(S(=O)(=O)Nc2ccc(-c3nc(OCCCC(N)=O)c4cn[nH]c4n3)cc2)c1  SGK-1 dependent phosphorylation of GSK3beta in U2OS cells                 NO
 2  O=S(=O)(Nc1ccc(-c2nc(Oc3cccnc3)c3cn[nH]c3n2)cc1)c1cc(Cl)ccc1Cl  SGK-1 dependent phosphorylation of GSK3beta in U2OS cells                 NO
 3  COc1nc(-c2ccc(NS(=O)(=O)c3cc(C)ccc3C#N)cc2)nc2[nH]ncc12  SGK-1 dependent phosphorylation of GSK3beta in U2OS cells                 NO
 4  COc1ccc(F)c(S(=O)(=O)Nc2ccc(-c3nc(OC4CNC4)c4cn[nH]c4n3)cc2)c1  SGK-1 dependent phosphorylation of GSK3beta in U2OS cells                YES
 5  Cc1ccc(F)c(S(=O)(=O)Nc2ccc(-c3ncc4c(C)n[nH]c4n3)cc2)c1  SGK-1 dependent phosphorylation of GSK3beta in U2OS cells                 NO
 6  Cc1n[nH]c2nc(-c3ccc(NS(=O)(=O)c4ccccc4F)cc3)nc(OCC3CNCCO3)c12 (stereo not drawn)  SGK-1 dependent phosphorylation of GSK3beta in U2OS cells                YES
 7  CC(C)(O)CCCOc1nc(-c2ccc(NS(=O)(=O)c3cc(Cl)ccc3F)cc2)nc2[nH]ncc12  SGK-1 dependent phosphorylation of GSK3beta in U2OS cells                 NO
 8  Cc1n[nH]c2nc(-c3ccc(NS(=O)(=O)c4cc(F)ccc4C#N)cc3)nc(OC3CCC(O)CC3)c12 (stereo not drawn)  SGK-1 dependent phosphorylation of GSK3beta in U2OS cells                 NO
 9  COc1ccc(Cl)c(S(=O)(=O)Nc2ccc(-c3nc(OCC(C)C)c4c(N)n[nH]c4n3)cc2)c1  SGK-1 dependent phosphorylation of GSK3beta in U2OS cells                YES
10  Nc1n[nH]c2nc(-c3ccc(NS(=O)(=O)c4cc5c(cc4Br)OCCCO5)cc3)ncc12  SGK-1 dependent phosphorylation of GSK3beta in U2OS cells                 NO
11  O=S(=O)(Nc1ccc(-c2nc(Oc3cccnc3)c3cn[nH]c3n2)cc1)c1cc(Cl)ccc1F  SGK-1 dependent phosphorylation of GSK3beta in U2OS cells                 NO
12  Cc1ccc(F)c(S(=O)(=O)Nc2ccc(-c3nc(OCC4O[C@H](O)[C@H](O)[C@@H](O)[C@@H]4O)c4cn[nH]c4n3)cc2)c1 (stereo partly drawn)  SGK-1 dependent phosphorylation of GSK3beta in U2OS cells                 NO
13  N#Cc1c(Cl)cccc1S(=O)(=O)Nc1ccc(-c2ncc3c(N)n[nH]c3n2)cc1  SGK-1 dependent phosphorylation of GSK3beta in U2OS cells                 NO
14  Nc1n[nH]c2nc(-c3ccc(NS(=O)(=O)c4cc(Cl)sc4Cl)cc3)nc(C3CC3)c12  SGK-1 dependent phosphorylation of GSK3beta in U2OS cells                YES
15  Cc1n[nH]c2nc(-c3ccc(NS(=O)(=O)c4cc(Cl)ccc4Cl)c(F)c3)ncc12  SGK-1 dependent phosphorylation of GSK3beta in U2OS cells                 NO
16  Nc1n[nH]c2nc(-c3ccc(NS(=O)(=O)c4cc(F)ccc4F)cc3)ncc12  SGK-1 dependent phosphorylation of GSK3beta in U2OS cells                YES
17  COc1ccc(F)c(S(=O)(=O)Nc2ccc(-c3nc(OC4CCCNC4)c4c(C)n[nH]c4n3)cc2)c1 (stereo not drawn)  SGK-1 dependent phosphorylation of GSK3beta in U2OS cells                YES
18  COc1ccc(Cl)c(S(=O)(=O)Nc2ccc(-c3nc(N4CC(CO)C4)c4cn[nH]c4n3)cc2)c1  SGK-1 dependent phosphorylation of GSK3beta in U2OS cells                 NO
19  Cc1ccc(C#N)c(S(=O)(=O)Nc2ccc(-c3nc(OC4CCN(CCF)CC4)c4c(C)n[nH]c4n3)cc2)c1  SGK-1 dependent phosphorylation of GSK3beta in U2OS cells                YES
20  COc1ccc(Cl)c(S(=O)(=O)Nc2ccc(-c3nc(OCC4CNCCO4)c4c(C)n[nH]c4n3)cc2)c1 (stereo not drawn)  SGK-1 dependent phosphorylation of GSK3beta in U2OS cells                YES
21  Cc1ccc(F)c(S(=O)(=O)Nc2ccc(-c3nc(OCCC(N)=O)c4cn[nH]c4n3)cc2)c1  SGK-1 dependent phosphorylation of GSK3beta in U2OS cells                 NO
22  COc1ccc(F)c(S(=O)(=O)Nc2ccc(-c3nc(OCC4CNCCO4)c4cn[nH]c4n3)cc2)c1 (stereo not drawn)  SGK-1 dependent phosphorylation of GSK3beta in U2OS cells                YES
23  Cc1ccc(C#N)c(S(=O)(=O)Nc2ccc(-c3nc(OCC4CNCCO4)c4c(C)n[nH]c4n3)cc2)c1 (stereo not drawn)  SGK-1 dependent phosphorylation of GSK3beta in U2OS cells                YES
24  COc1ccc(Cl)c(S(=O)(=O)Nc2ccc(-c3nc(OC)c4cn[nH]c4n3)cc2)c1  SGK-1 dependent phosphorylation of GSK3beta in U2OS cells                YES
25  Cc1n[nH]c2nc(-c3ccc(NS(=O)(=O)c4cc(Cl)ccc4Cl)cc3)nc(OC3CCCNC3)c12 (stereo not drawn)  SGK-1 dependent phosphorylation of GSK3beta in U2OS cells                YES
26  O=S(=O)(Nc1ccc(-c2nc(N3CCC(O)C3)c3cn[nH]c3n2)cc1F)c1cc(Cl)ccc1Cl (stereo not drawn)  SGK-1 dependent phosphorylation of GSK3beta in U2OS cells                 NO
27  COc1ccc(Cl)c(S(=O)(=O)Nc2ccc(-c3nc(OC4CCCNC4)c4c(C)n[nH]c4n3)cc2)c1 (stereo not drawn)  SGK-1 dependent phosphorylation of GSK3beta in U2OS cells                YES
28  COc1ccc(F)c(S(=O)(=O)Nc2ccc(-c3nc(C4CC4)c4cn[nH]c4n3)cc2)c1  SGK-1 dependent phosphorylation of GSK3beta in U2OS cells                YES
